- Tested on: 422866-222-R5-J1-PDC spheroids with HUVEC/MSC, viability;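 note: spheroids exposed to compounds for seven days before reading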
- TEST_NAME: Anticancer human tumor 422866-222-R5-J1-PDC patient-derived pancreatic adenocarcinoma cell line growth inhibition [GQUAD]
- CONDITIONS: curve of first compound; second compound 0.0316 µM
- Source text: DNA G-quadruplex Stabilizer Agents in Combinations in Complex Spheroids A high-throughput screen of multi-cell type tumor spheroids was designed to identify active combinations of DNA G-quadruplex stabilizer agents and targeted small molecules. […] Compounds. […] If the clinical Cmax for an agent had not been determined, the highest concentration tested was 10 microM. […]
Please use T for IC50 under 1 µM and F for everything else, ties included.

// below: answered compounds
COMPOUND | ASSIGNED_CATEGORY
Nc1ccn(C2OC(CO)C(O)C2(F)F)c(=O)n1 (stereo not given) + Cc1cnc(CNC(=O)c2c(=O)c3ccc(N4CCCN(C)CC4)nc3n3c2sc2ccccc23)cn1 | F
CC(C)n1c(=O)n(C)c2cnc3cc(F)c(-c4ccc(OCCCN5CCCCC5)nc4)cc3c21 + Cc1[nH]c2ccc(F)cc2c1-c1nc2c3cccnc3c3ncccc3c2[nH]1 | F
C#Cc1c(F)ccc2cc(O)cc(-c3ncc4c(N5CC6CCC(C5)N6)nc(OCC56CCCN5CC(F)C6)nc4c3F)c12 (stereo not given) + Cc1[nH]c2ccc(F)cc2c1-c1nc2c3cccnc3c3ncccc3c2[nH]1 | F
CC1COCCN1c1cc(-c2ccnn2C)c2ccnc(-c3ccn[nH]3)c2n1 (stereo not given) + CN(C)c1ccc(Nc2c3ccc(NC(=O)CCN4CCCC4)cc3nc3cc(NC(=O)CCN4CCCC4)ccc23)cc1 | F

Exercise: Hello, is IC50 of the following compound strictly smaller than 1 µM? CC1COCCN1c1cc(C2(S(C)(=N)=O)CC2)nc(-c2ccnc3[nH]ccc23)n1 (stereo not given) + Cc1[nH]c2ccc(F)cc2c1-c1nc2c3cccnc3c3ncccc3c2[nH]1
Solution: F

Exercise: Hello, is IC50 of the following compound strictly smaller than 1 µM? CCCS(=O)(=O)Nc1ccc(F)c(C(=O)c2c[nH]c3ncc(-c4ccc(Cl)cc4)cc23)c1F + CN(C)c1ccc(Nc2c3ccc(NC(=O)CCN4CCCC4)cc3nc3cc(NC(=O)CCN4CCCC4)ccc23)cc1
Solution: F

Exercise: Hello, is IC50 of the following compound strictly smaller than 1 µM? C=CC(=O)N1CCN(c2nc(=O)n(-c3c(C)ccnc3C(C)C)c3nc(-c4c(O)cccc4F)c(F)cc23)C(C)C1 (stereo not given) + Cc1[nH]c2ccc(F)cc2c1-c1nc2c3cccnc3c3ncccc3c2[nH]1
Solution: T

Exercise: Hello, is IC50 of the following compound strictly smaller than 1 µM? C=CCn1c(=O)c2cnc(Nc3ccc(N4CCN(C)CC4)cc3)nc2n1-c1cccc(C(C)(C)O)n1 + CN(C)c1ccc(Nc2c3ccc(NC(=O)CCN4CCCC4)cc3nc3cc(NC(=O)CCN4CCCC4)ccc23)cc1
Solution: T

Exercise: Hello, is IC50 of the following compound strictly smaller than 1 µM? CC1COCCN1c1cc(C2(O)CC3CCC(C2)O3)c2cnn(-c3ccn[nH]3)c2n1 (stereo not given) + CN(C)c1ccc(Nc2c3ccc(NC(=O)CCN4CCCC4)cc3nc3cc(NC(=O)CCN4CCCC4)ccc23)cc1
Solution: F

Exercise: Hello, is IC50 of the following compound strictly smaller than 1 µM? CC[C@@]1(O)C(=O)OCc2c1cc1n(c2=O)Cc2cc3c(CN(C)C)c(O)ccc3nc2-1 + CN(C)c1ccc(Nc2c3ccc(NC(=O)CCN4CCCC4)cc3nc3cc(NC(=O)CCN4CCCC4)ccc23)cc1
Solution: T

Exercise: Hello, is IC50 of the following compound strictly smaller than 1 µM? CC1COCCN1c1cc(-c2ccnn2C)c2ccnc(-c3ccn[nH]3)c2n1 (stereo not given) + Cc1[nH]c2ccc(F)cc2c1-c1nc2c3cccnc3c3ncccc3c2[nH]1
Solution: F
